Numbers sourced from ChEMBL document CHEMBL5500414.

Target: Induced myeloid leukemia cell differentiation protein Mcl-1 (Homo sapiens, UniProt Q07820)
Sequence (Q07820 whole entry): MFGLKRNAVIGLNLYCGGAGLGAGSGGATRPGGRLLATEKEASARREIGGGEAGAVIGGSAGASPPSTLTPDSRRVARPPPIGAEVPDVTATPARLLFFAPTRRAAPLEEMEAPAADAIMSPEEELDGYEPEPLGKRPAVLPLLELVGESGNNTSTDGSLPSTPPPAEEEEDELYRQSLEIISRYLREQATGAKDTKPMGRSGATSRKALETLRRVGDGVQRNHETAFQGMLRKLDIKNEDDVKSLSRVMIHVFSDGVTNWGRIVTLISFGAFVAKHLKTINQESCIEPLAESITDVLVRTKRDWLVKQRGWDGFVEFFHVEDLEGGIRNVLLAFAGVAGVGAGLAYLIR
Test: Binding affinity to MCL-1 (unknown origin) assessed as inhibition constant by time-resolved fluorescence resonance energy transfer binding affinity assays
Measurement Type: Ki

Query: Which Ki reading was recorded for the molecule "CC1(C)CCC(CN2CCN(c3ccc(C(=O)NS(=O)(=O)c4ccc(NCC5CCOCC5)c([N+](=O)[O-])c4)c(Oc4cnc5[nH]ccc5c4)c3)CC2)=C(c2ccc(Cl)cc2)C1" ?
Reply: > 0.444 µM

----------
I'd be grateful if you could share measured half-life for these entries.
Test: Glutathione reactivity assessed as half life
One number for each entry, in min.

Examples with their reported half-life follow.
C=CC(=O)Nc1ccc2c(c1)CCC(CN1CCN(c3ccc(C(=O)O)c(Oc4cnc5[nH]ccc5c4)c3)CC1)=C2c1ccc(Cl)cc1CC = 256
C=CC(=O)Nc1cc(Nc2nccc(-c3cn(C)c4ccccc34)n2)c(OC)cc1N(C)CCN(C)C = 30.6

Switching to the query record.
Query: Which half-life reading was recorded for the compound "CN(C)C/C=C/C(=O)Nc1cc2c(Nc3ccc(F)c(Cl)c3)ncnc2cc1O[C@H]1CCOC1" ?
Reply: 13.2

----------
Molecular target: BCL2A1/BID (Homo sapiens, UniProt Q16548)
Measurement Type: pEC50
One number for each entry, as −log10 of the molar value.

Query: Which pEC50 reading was recorded for the compound "CC(=O)N[C@@H](Cc1c[nH]c2ccccc12)C(=O)NCCSSCCN(C)C" ?
Reply: 5.89

----------
Reported pKi for target or system BCL2A1/BID (Homo sapiens, UniProt Q16548), by entry.
Numbers only, as −log10 of the molar value.

C=CC(=O)Nc1ccc2c(c1)CCC(CN1CCN(c3ccc(C(=O)O)c(-c4ccccc4)c3)CC1)=C2c1ccc(Cl)cc1 = 6.75

I have 4 compounds here; please give me pKi for each one.
1. CCc1cc(Cl)ccc1C1=C(CN2CCN(c3ccc(C(=O)NS(=O)(=O)c4ccc(NCC5CCOCC5)c([N+](=O)[O-])c4)c(Oc4cnc5[nH]ccc5c4)c3)CC2)CCc2cc(N)ccc21
2. C=CC(=O)Nc1ccc2c(c1)CCC(CN1CCN(c3ccc(C(=O)O)cc3)CC1)=C2c1ccc(Cl)cc1Cl
3. C=CC(=O)Nc1ccc2c(c1)CCC(CN1CCN(c3ccc(C(=O)O)cc3)CC1)=C2c1ccc(Cl)cc1C
4. CC(C)(C)c1ccc(CN2CCN(S(=O)(=O)Nc3ccc(SCCc4ccccc4)cc3C(=O)O)CC2)cc1

Reply:
[5.95, 6.59, 6.60, 6.19]

I have 3 compounds here; please give me pKi for each one.
1. C=CC(=O)NCc1ccc2c(c1)CCC(CN1CCN(c3ccc(C(=O)O)cc3)CC1)=C2c1ccc(Cl)cc1
2. O=C(CCl)Nc1ccc2c(c1)CCC(CN1CCN(c3ccc(C(=O)O)cc3)CC1)=C2c1ccc(Cl)cc1
3. C=CC(=O)Nc1ccc2c(c1)CCC(CN1CCN(c3ccc(C(=O)O)cc3)CC1)=C2c1ccc(Cl)cc1CC

Reply:
1. 6.04
2. 6.00
3. 6.80

----------
Target: Bcl-2-related protein A1 (Homo sapiens, UniProt Q16548, C55A)
Experiment: Binding affinity to BFL-1 C55A mutant (unknown origin) assessed as inhibition constant by fluorescence polarization assay
Measurement Type: pKi
Answers are plain numbers, as −log10 of the molar value.

Query: Form entry - test system: Bcl-2-related protein A1 (Homo sapiens, UniProt Q16548, C55A); read-out: pKi; molecule: "C=CC(=O)Nc1ccc2c(c1)CCC(CN1CCN(c3ccc(C(=O)O)c(Oc4cnc5[nH]ccc5c4)c3)CC1)=C2c1ccc(Cl)cc1CC"
Reply: 5.86

----------
Tested on: Pfeiffer
Test: Antiproliferative activity against human Pfeiffer cells expressing high BCL-2/BFL-1 assessed as cell viability measured after 72 hrs by Cell Counting Kit-8 assay
Measurement Type: pIC50
Answers are plain numbers, as −log10 of the molar value.

Examples with their reported pIC50 follow.
C=CC(=O)N(CC)c1ccc2c(c1)CCC(CN1CCN(c3ccc(C(=O)O)cc3)CC1)=C2c1ccc(Cl)cc1CC = 4.64
Nc1ccc2c(c1)CCC(CN1CCN(c3ccc(C(=O)NS(=O)(=O)c4ccc(NCC5CCOCC5)c([N+](=O)[O-])c4)c(Oc4cnc5[nH]ccc5c4)c3)CC1)=C2c1ccc(Cl)cc1 = 5.05
C=CC(=O)Nc1ccc2c(c1)CCC(CN1CCN(c3ccc(C(=O)O)c(Oc4cnc5[nH]ccc5c4)c3)CC1)=C2c1ccc(Cl)cc1 = 4.98

I have 6 compounds here; please give me pIC50 for each one.
1. C=CC(=O)Nc1ccc2c(c1)CCC(CN1CCN(c3ccc(C(=O)O)c(Oc4cnc5[nH]ccc5c4)c3)CC1)=C2c1ccc(Cl)cc1CC
2. CC(C)(C)c1ccc(CN2CCN(S(=O)(=O)Nc3ccc(SCCc4ccccc4)cc3C(=O)O)CC2)cc1
3. C=CC(=O)Nc1ccc2c(c1)CCC(CN1CCN(c3ccc(C(=O)NS(=O)(=O)c4ccc(NCC5CCOCC5)c([N+](=O)[O-])c4)c(Oc4cnc5[nH]ccc5c4)c3)CC1)=C2c1ccc(Cl)cc1
4. CC1(C)CCC(CN2CCN(c3ccc(C(=O)NS(=O)(=O)c4ccc(NCC5CCOCC5)c([N+](=O)[O-])c4)c(Oc4cnc5[nH]ccc5c4)c3)CC2)=C(c2ccc(Cl)cc2)C1
5. C=CC(=O)Nc1ccc2c(c1)CCC(CN1CCN(c3ccc(C(=O)NS(=O)(=O)c4ccc(NCC5CCOCC5)c([N+](=O)[O-])c4)c(Oc4cnc5[nH]ccc5c4)c3)CC1)=C2c1ccc(Cl)cc1CC
6. CCc1cc(Cl)ccc1C1=C(CN2CCN(c3ccc(C(=O)NS(=O)(=O)c4ccc(NCC5CCOCC5)c([N+](=O)[O-])c4)c(Oc4cnc5[nH]ccc5c4)c3)CC2)CCc2cc(N)ccc21

Reply:
[5.16, 4.67, 5.12, 5.20, 5.14, 5.09]

----------
I'd be grateful if you could share measured pKi for these entries.
Biological target: Induced myeloid leukemia cell differentiation protein Mcl-1/BH3-interacting domain death agonist (Homo sapiens, UniProt Q07820)
Sequence (Q07820 whole entry, one chain of several, the tested form may be a part): as the sequence (Q07820 whole entry) above
Numbers only, as −log10 of the molar value.

Examples with their reported pKi follow.
C=CC(=O)Nc1ccc2c(c1)CCC(CN1CCN(c3ccc(C(=O)NS(=O)(=O)c4ccc(NCC5CCOCC5)c([N+](=O)[O-])c4)c(Oc4cnc5[nH]ccc5c4)c3)CC1)=C2c1ccc(Cl)cc1CC = 5.35
Nc1ccc2c(c1)CCC(CN1CCN(c3ccc(C(=O)NS(=O)(=O)c4ccc(NCC5CCOCC5)c([N+](=O)[O-])c4)c(Oc4cnc5[nH]ccc5c4)c3)CC1)=C2c1ccc(Cl)cc1 = 5.32
CCc1cc(Cl)ccc1C1=C(CN2CCN(c3ccc(C(=O)NS(=O)(=O)c4ccc(NCC5CCOCC5)c([N+](=O)[O-])c4)c(Oc4cnc5[nH]ccc5c4)c3)CC2)CCc2cc(N)ccc21 = 5.48
C=CC(=O)Nc1ccc2c(c1)CCC(CN1CCN(c3ccc(C(=O)O)c(Oc4cnc5[nH]ccc5c4)c3)CC1)=C2c1ccc(Cl)cc1CC = 5.90
CC1(C)CCC(CN2CCN(c3ccc(C(=O)NS(=O)(=O)c4ccc(NCC5CCOCC5)c([N+](=O)[O-])c4)c(Oc4cnc5[nH]ccc5c4)c3)CC2)=C(c2ccc(Cl)cc2)C1 [VENETOCLAX] = 5.43
C=CC(=O)Nc1ccc2c(c1)CCC(CN1CCN(c3ccc(C(=O)O)c(Oc4cnc5[nH]ccc5c4)c3)CC1)=C2c1ccc(Cl)cc1 = 5.63

I have 2 compounds here; please give me pKi for each one.
1. C=CC(=O)Nc1ccc2c(c1)CCC(CN1CCN(c3ccc(C(=O)NS(=O)(=O)c4ccc(NCC5CCOCC5)c([N+](=O)[O-])c4)c(Oc4cnc5[nH]ccc5c4)c3)CC1)=C2c1ccc(Cl)cc1
2. C=CC(=O)N(CCC)c1ccc2c(c1)CCC(CN1CCN(c3ccc(C(=O)O)cc3)CC1)=C2c1ccc(Cl)cc1CC

Reply:
[5.38, 5.36]

----------
I'd be grateful if you could share measured Ki for these entries.
Target: BCL2A1/BID (Homo sapiens, UniProt Q16548)
Sequence (Q16548 whole entry): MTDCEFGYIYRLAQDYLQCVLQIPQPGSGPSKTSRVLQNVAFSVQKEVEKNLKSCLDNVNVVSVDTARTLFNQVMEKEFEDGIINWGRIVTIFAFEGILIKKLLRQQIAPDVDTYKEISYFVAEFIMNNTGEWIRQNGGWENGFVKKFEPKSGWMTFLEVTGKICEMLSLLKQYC
Sequence (P55957 whole entry): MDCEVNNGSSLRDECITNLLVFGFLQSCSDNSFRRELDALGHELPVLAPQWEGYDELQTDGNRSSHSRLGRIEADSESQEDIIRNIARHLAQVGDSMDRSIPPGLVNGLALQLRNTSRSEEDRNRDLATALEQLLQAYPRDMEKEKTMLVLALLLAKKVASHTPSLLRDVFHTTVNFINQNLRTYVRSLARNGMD
Numbers only, in nM.

Examples with their reported Ki follow.
C=CC(=O)Nc1ccc2c(c1)CCC(CN1CCN(c3ccc(C(=O)O)c(N(C)CCCN(C)C)c3)CC1)=C2c1ccc(Cl)cc1 = 774
C=CC(=O)Nc1ccc2c(c1)CCC(CN1CCN(c3ccc(C(=O)O)cc3)CC1)=C2c1ccncc1 = 5340
C=CC(=O)N(CC)c1ccc2c(c1)CCC(CN1CCN(c3ccc(C(=O)O)cc3)CC1)=C2c1ccc(Cl)cc1CC = 110
C=CC(=O)N1CCN(c2c3ccc(-c4cccc(F)c4)cc3nn2Cc2ccccc2)CC1 = 465
C=CC(=O)Nc1ccc2c(c1)CCC(CN1CCN(c3ccc(C(=O)O)cc3)CC1)=C2c1ccc(Cl)cc1F = 361
C=CC(=O)Nc1ccc2c(c1)CCC(CN1CCN(c3ccc(C(=O)O)cc3)CC1)=C2c1ccccc1Cl = 409
C=CC(=O)N(C)c1ccc2c(c1)CCC(CN1CCN(c3ccc(C(=O)O)cc3)CC1)=C2c1ccc(Cl)cc1CC = 218
Nc1ccc2c(c1)CCC(CN1CCN(c3ccc(C(=O)NS(=O)(=O)c4ccc(NCC5CCOCC5)c([N+](=O)[O-])c4)c(Oc4cnc5[nH]ccc5c4)c3)CC1)=C2c1ccc(Cl)cc1 = 1170

Switching to the query record.
Query: Form entry - test system: BCL2A1/BID (Homo sapiens, UniProt Q16548); read-out: Ki; molecule: "C=CC(=O)Nc1ccc2c(c1)CCC(CN1CCN(c3ccc(C(=O)O)cc3)CC1)=C2c1ccccc1"
Reply: 781
